Taken from the supplement of paper PMC6555819.

# Tested on: RARa:RXR (NR concentration 270 nM, RXRa partner concentration 90 nM)
# Assay remarks: PBM binding z-score (relative to random genomic background probes); higher = stronger binding; sequences stand for … in GC…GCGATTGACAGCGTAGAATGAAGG
Parameter: PBM binding z-score
Returns: the value as a bare number; no unit string appended.

INSERT INTO assay_data (sequence_text, parameter, value) VALUES
  ('CCTATTAGTTGACGATAAGGGCAACCGAAGCTCG', 'PBM binding z-score', 0.847),
  ('GCTGCTAGGTCAGGTTGGTTAGCTAACGGGTACG', 'PBM binding z-score', 0.712),
  ('CCTTACGGGTCACGACGTTATAGCACGACGAGCG', 'PBM binding z-score', 4.61),
  ('TCTATTAGTTGATTAGGGCAACCGTAACAGCGGA', 'PBM binding z-score', 0.681),
  ('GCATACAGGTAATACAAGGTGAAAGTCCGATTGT', 'PBM binding z-score', 1.48);

Problem: # input sequence: CCGTGTAGGTTATGGGGCATTCAGGCAACGGTGA ; wanted: its PBM binding z-score
Solution: 0.761

Problem: Cool, now CGTCCAAGGTCTGAGAGGTCAGTGAATGCCGAGT
Solution: 2.79
